experiment: CEETOX_H295R_DOC: CeeTox H295R High-throughput Steroidogenesis Assay for DOC (AID 2283439); details: actives raise or lower the signal
The source made the active and inactive calls. How the source made its calls: active means hit-call score of the fitted dose curve at least 0.9, where 1 is the maximum; inactive means score below 0.9.
Give one outcome, nothing more. List: T for active, F for inactive

compound: Oc1ccc2c(c1)OC[C@@H](N1CCC(O)(c3ccc(F)cc3)CC1)[C@H]2O
class: F
--
compound: COc1ccc(S(=O)(=O)N2C(=O)[C@@](c3ccccc3OC)(N3C[C@H](O)C[C@H]3C(=O)N(C)C)c3cc(Cl)ccc32)c(OC)c1
class: F
--
compound: Cc1nc(C)nc(N2C[C@@H](C)N(c3ccnc([C@@H](C)O)n3)[C@@H](C)C2)n1
class: F

IN: // param item: Cc1nc(-c2ccc3c(c2)CCN(CCC2CCC(NC(=O)/C=C/c4ccc(F)cc4)CC2)CC3)no1 (stereo not drawn) ; yields the recorded call
OUT: T

IN: Which outcome did this test record for the compound Cc1cccc(Nc2cc(Cl)nc(SCC(=O)O)n2)c1C ?
OUT: F

IN: What classification did COc1ccc(C)cc1N end up with in this test?
OUT: F

IN: // outcome(item) with item = Cc1c(C(=O)O)c(O)cc2c1C(=O)c1c(O)c([C@@H]3O[C@H](CO)[C@@H](O)[C@H](O)[C@H]3O)c(O)c(O)c1C2=O
OUT: F

IN: Call for entry Nc1ccccc1N :
OUT: F

----------
assay: ATG_SREBP_CIS: Attagene CIS-FACTORIAL HepG2 Assay for human Sterol Regulatory Element Binding (SREBP) (AID 2282962); details: HepG2 Attagene cis-factorial SREBP reporter, mRNA; actives raise or lower the signal
Active and inactive are the calls of the source. Rule for the calls: active = hit-call score of the fitted dose curve at least 0.9, where 1 is the maximum; inactive = score below 0.9.
Tick one outcome: active, inactive

Example entries begin here.
molecule: CCNc1cccc(C)c1
class: inactive
//
molecule: CCCCN(CCCC)CCCC
class: inactive
//
molecule: COc1cccc2c1C(=O)c1c(O)c3c(c(O)c1C2=O)C[C@@](O)(C(=O)CO)C[C@@H]3O[C@H]1C[C@H](N)[C@H](O)[C@H](C)O1
class: active

IN: Fill in: this test's call for CCCCCCOCCO is ___
OUT: inactive

IN: So what was the verdict on Nc1ccccc1N in this test?
OUT: inactive

IN: Write down the call the test reported for this molecule. Item: COc1ccc(C)cc1N
OUT: inactive

IN: State the result this test recorded for CCCCCC(=O)O .
OUT: inactive

IN: Hello, I am checking results. What call was entered for Nc1ccc2c(c1)C(=O)c1ccccc1C2=O ?
OUT: inactive

IN: Returns: the outcome recorded for CCCCCCCCCCCCCCCCCC(=O)O in this assay.
OUT: inactive

IN: Per the assay record, what outcome was assigned to Cc1nc(-c2ccc3c(c2)CCN(CCC2CCC(NC(=O)/C=C/c4ccc(F)cc4)CC2)CC3)no1 (stereo not given) ?
OUT: inactive

IN: Outcome? Cc1c(C(=O)O)c(O)cc2c1C(=O)c1c(O)c([C@@H]3O[C@H](CO)[C@@H](O)[C@H](O)[C@H]3O)c(O)c(O)c1C2=O
OUT: inactive

IN: Fill in: this test's call for Cc1cccc([N+](=O)[O-])c1C is ___
OUT: inactive

IN: How was Cc1ccc(C(C)C)c(O)c1 classified in this test?
OUT: inactive

IN: Entry C[Si]1(C)O[Si](C)(C)O[Si](C)(C)O[Si](C)(C)O1 : call = ?
OUT: inactive

IN: How was CCCCCCCCCCO classified in this test?
OUT: inactive

IN: Give the logged outcome of this assay for the following molecule: O=C(N[C@@H](Cc1ccccc1)[C@@H](O)C(=O)N1C[C@@H](O)[C@@H](O)C1)c1cc2cc(Cl)ccc2[nH]1
OUT: inactive
